# assay.system: Human Cot (Homo sapiens (Human))
# Sequence (P41279 30-397): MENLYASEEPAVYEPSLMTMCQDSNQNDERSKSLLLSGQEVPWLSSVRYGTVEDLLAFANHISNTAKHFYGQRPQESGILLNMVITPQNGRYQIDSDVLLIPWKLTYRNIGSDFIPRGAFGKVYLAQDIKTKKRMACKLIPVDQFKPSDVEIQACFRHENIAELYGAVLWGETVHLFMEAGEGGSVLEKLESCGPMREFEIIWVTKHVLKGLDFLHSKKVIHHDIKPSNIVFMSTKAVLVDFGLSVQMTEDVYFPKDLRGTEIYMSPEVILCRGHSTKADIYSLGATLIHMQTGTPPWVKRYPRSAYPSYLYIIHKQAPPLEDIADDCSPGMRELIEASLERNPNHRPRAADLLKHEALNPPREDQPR
# assay.name: High Throughput Cot Biochemical Assay
# cond: IC50 HTRF, Cot HTRF (TR-FRET) biochemical assay
pIC50: −log10 of the molar value.
readout.name: pIC50

>  <smiles.code>
N#Cc1cnc2c(Cl)cc(N[C@@H](c3cccnc3)c3c[nH]nn3)cc2c1Nc1ccc(Cl)c(Cl)c1F

>  <pIC50>
7.80

$$$$
>  <smiles.code>
Cc1nc(F)ccc1[C@H](Nc1cc(Cl)c2ncc(C#N)c(NCC(C)(C)C)c2c1)c1cn(C2(C(F)(F)F)COC2)nn1

>  <pIC50>
8.10

$$$$
>  <smiles.code>
CC(C)(C)CNc1c(C#N)cnc2c(C#N)cc(N[C@H](c3cn(C4(C#N)CC4)nn3)c3cccc4ncccc34)cc12

>  <pIC50>
9.00

$$$$
>  <smiles.code>
Cc1nc(F)ccc1[C@H](Nc1cc(C#N)c2ncc(C#N)c(NCC(C)(C)C)c2c1)c1cn([C@@H](C)CF)nn1

>  <pIC50>
9.00

$$$$

1: CC(C)(C)CNc1c(C#N)cnc2c(Cl)cc(N[C@H](c3cn(C4(C(F)F)CC4)nn3)c3cccc4c(=O)[nH]ccc34)cc12
2: N#Cc1cnc2c(Cl)cc(N[C@H](c3c[nH]nn3)c3cnccc3Cl)cc2c1Nc1cnc(F)c(F)c1
Hello, I am sorting some records. Could you say if 1 or 2 has the smaller pIC50 value? API: response body contains the label of the selected item.
2
(2: 7.36, 1: 8.40)

* * *

# System: TNFα
# assay.name: Cot Monocyte TNFα Cell Based Assay
# cond: Homo sapiens, Monocyte, read-out: EC50 TNF, LPS-stimulated human monocytes, TNFα
readout.name: EC50 (nM)

Example results:
>  <compound>
Cc1nc(F)ccc1[C@H](Nc1cc(Cl)c2ncc(C#N)c(NCC(C)(C)C)c2c1)c1cn(C2(C(F)(F)F)COC2)nn1 [Example 548]

>  <assay.system>
TNFα

>  <EC50 / nM>
124

$$$$
>  <compound>
CC(C)(C)CNc1c(C#N)cnc2c(Cl)cc(N[C@H](c3cn(C4(C)CC4)nn3)c3cccc4cnccc34)cc12 [Example 564]

>  <assay.system>
TNFα

>  <EC50 / nM>
69

$$$$
>  <compound>
CC(C)(C)N1CCC(n2cc([C@@H](Nc3cc(Cl)c4ncc(C#N)c(Nc5ccc(F)c(Cl)c5)c4c3)c3cnco3)nn2)CC1 [Example 299]

>  <assay.system>
TNFα

>  <EC50 / nM>
739

$$$$
>  <compound>
CN(C)CCn1cc([C@@H](Nc2cc(Cl)c3ncc(C#N)c(Nc4ccc(F)c(Cl)c4)c3c2)c2cscn2)nn1 [Example 355]

>  <assay.system>
TNFα

>  <EC50 / nM>
194

$$$$
>  <compound>
CC(C)(C)N1CCC(n2cc([C@@H](Nc3cc(Cl)c4ncc(C#N)c(Nc5ccc(F)c(Cl)c5)c4c3)c3cccc4ncsc34)nn2)CC1 [Example 52]

>  <assay.system>
TNFα

>  <EC50 / nM>
88

$$$$

A: CC(C)(C)CNc1c(C#N)cnc2c(C#N)cc(N[C@H](c3cn(C4(C(F)(F)F)CC4)nn3)c3ccc(C#N)c4ncccc34)cc12 [Example 710]
B: CC(C)(C)CNc1c(C#N)cnc2c(Cl)cc(N[C@H](c3cn(C4(C(F)F)CC4)nn3)c3cccc4ncccc34)cc12 [Example 508]
C: Cc1ncccc1[C@H](Nc1cc(Cl)c2ncc(C#N)c(Nc3cccc(Cl)c3)c2c1)c1cn(C2CCN(C(C)(C)C)CC2)nn1 [Example 226]
D: CC(C)(C)CNc1c(C#N)cnc2c(Cl)cc(N[C@H](c3cn(C4(C(F)(F)F)CC4)nn3)c3cccc4nccnc34)cc12 [Example 734]
Form: Sort by [EC50] Order [ ascending ] Use the labels to give the ranking in the order requested.
B, A, D, C
